test system: KRAS-mutant PDC tumor spheroid with HUVEC/MSC, viability; experiment: Anticancer human tumor 327498-153-R-J2-PDC patient-derived uterine carcinosarcoma cell line growth inhibition [KRAS2]; details: second compound 0.1 µM; first compound 0.316 µM; stronger effect = lower value
The entries below come with measured viability, T/C values attached.

The examples below pair each entry with its known result.
| compound | recorded-endpoint | experimental-result |
| --- | --- | --- |
| COc1cc(Nc2ncc3c(n2)-c2ccc(Cl)cc2C(c2c(F)cccc2OC)=NC3)ccc1C(=O)O + C=CC(=O)N1CCN(c2nc(OCC3CCCN3C)nc3c2CCN(c2cccc4cccc(C)c24)C3)CC1CC#N | viability, T/C | 10.2% |
| CCNC(=O)CC1N=C(c2ccc(Cl)cc2)c2cc(OC)ccc2-n2c(C)nnc21 (centres undefined) + C=CC(=O)N1CCN(c2nc(OCC3CCCN3C)nc3c2CCN(c2cccc4cccc(C)c24)C3)CC1CC#N | viability, T/C | 46.2% |
| CC(=O)OC12COC1CC(O)C1(C)C(=O)C(O)C3=C(C)C(OC(=O)C(O)C(NC(=O)OC(C)(C)C)c4ccccc4)CC(O)(C(OC(=O)c4ccccc4)C21)C3(C)C (centres undefined) + CNCc1ccccc1-c1csc(C(C)Nc2nc(C)nc3cc(OC)c(OC)cc23)c1 | viability, T/C | 7.57% |

Consider the record given below.
Entry O=C(c1cc(Cc2n[nH]c(=O)c3ccccc23)ccc1F)N1CCN(C(=O)C2CC2)CC1 + CNCc1ccccc1-c1csc(C(C)Nc2nc(C)nc3cc(OC)c(OC)cc23)c1 ; viability, T/C = 82.8%

###

system: KRAS-mutant PDC tumor spheroid with HUVEC/MSC, viability; assay: Anticancer human tumor 327498-153-R-J2-PDC cell line growth inhibition [KRAS2]; conditions: second compound 0.316 µM; first compound 0.1 µM; active = viability on the fitted dose curve at most 10% of control; inactive = the rest;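 also: spheroids exposed to agents for seven days before reading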
Hello, when you answer, please use one of the following outcomes: active, inactive

| compound | group-label |
| --- | --- |
| CC1(C)CCC(CN2CCN(c3ccc(C(=O)NS(=O)(=O)c4ccc(NCC5CCOCC5)c([N+](=O)[O-])c4)c(Oc4cnc5[nH]ccc5c4)c3)CC2)=C(c2ccc(Cl)cc2)C1 + COc1cc2nc(C)nc(NC(C)c3cc(N)cc(C(F)(F)F)c3)c2cc1OC1CCOC1 | inactive |

Recorded test call requested for CC(C)n1nc(-c2ccc3oc(N)nc3c2)c2c(N)ncnc21 + C=CC(=O)N1CCN(c2nc(OCC3CCCN3C)nc3c2CCN(c2cccc4cccc(C)c24)C3)CC1CC#N
active

Status in this test for COC(=O)c1ccc2c(C(=Nc3ccc(N(C)C(=O)CN4CCN(C)CC4)cc3)c3ccccc3)c(O)[nH]c2c1 + CNCc1ccccc1-c1csc(C(C)Nc2nc(C)nc3cc(OC)c(OC)cc23)c1 ?
inactive

###

tested on: KRAS-mutant PDC tumor spheroid with HUVEC/MSC, viability; assay: Anticancer human tumor 327498-153-R-J2-PDC cell line growth inhibition [KRAS2]; settings: second compound 3.16 µM; first compound 0.0316 µM; active = viability on the fitted dose curve at most 10% of control; inactive = the rest;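 also: spheroids exposed to agents for seven days before reading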
Pick one: active, inactive

| molecule | assayed-system | group-label |
| --- | --- | --- |
| CC(C)n1nc(-c2ccc3oc(N)nc3c2)c2c(N)ncnc21 + COc1cc2nc(C)nc(NC(C)c3cc(N)cc(C(F)(F)F)c3)c2cc1OC1CCOC1 | KRAS-mutant PDC tumor spheroid with HUVEC/MSC, viability | active |
| CC(C)n1nc(-c2ccc3oc(N)nc3c2)c2c(N)ncnc21 + C=CC(=O)N1CCN(c2nc(=O)n(-c3c(C)ccnc3C(C)C)c3nc(-c4c(O)cccc4F)c(F)cc23)C(C)C1 | KRAS-mutant PDC tumor spheroid with HUVEC/MSC, viability | active |
| CC(=O)Nc1cccc(-n2c(=O)n(C3CC3)c(=O)c3c(Nc4ccc(I)cc4F)n(C)c(=O)c(C)c32)c1 + CNCc1ccccc1-c1csc(C(C)Nc2nc(C)nc3cc(OC)c(OC)cc23)c1 | KRAS-mutant PDC tumor spheroid with HUVEC/MSC, viability | active |
| O=C(c1cc(Cc2n[nH]c(=O)c3ccccc23)ccc1F)N1CCN(C(=O)C2CC2)CC1 + C=CC(=O)N1CCN(c2nc(OCC3CCCN3C)nc3c2CCN(c2cccc4cccc(C)c24)C3)CC1CC#N | KRAS-mutant PDC tumor spheroid with HUVEC/MSC, viability | active |

--- query ---
Please let me know the test result on file for CC(=O)Nc1cccc(-n2c(=O)n(C3CC3)c(=O)c3c(Nc4ccc(I)cc4F)n(C)c(=O)c(C)c32)c1 + COc1cc2nc(C)nc(NC(C)c3cc(N)cc(C(F)(F)F)c3)c2cc1OC1CCOC1 .
inactive

###

tested on: KRAS-mutant PDC tumor spheroid with HUVEC/MSC, viability; experiment: Anticancer human tumor 327498-153-R-J2-PDC cell line growth inhibition [KRAS2]; details: curve of first compound; second compound 0.316 µM;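 also: spheroids exposed to agents for seven days before reading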
Documented IC50 across a set of molecules

| molecule | assayed-system | recorded-endpoint | experimental-result |
| --- | --- | --- | --- |
| COc1cc(Nc2ncc3c(n2)-c2ccc(Cl)cc2C(c2c(F)cccc2OC)=NC3)ccc1C(=O)O + C=CC(=O)N1CCN(c2nc(OCC3CCCN3C)nc3c2CCN(c2cccc4cccc(C)c24)C3)CC1CC#N | KRAS-mutant PDC tumor spheroid with HUVEC/MSC, viability | IC50 | < 31.6 nM |
| CCN1CCN(Cc2ccc(Nc3ncc(F)c(-c4cc(F)c5nc(C)n(C(C)C)c5c4)n3)nc2)CC1 + C=CC(=O)N1CCN(c2nc(=O)n(-c3c(C)ccnc3C(C)C)c3nc(-c4c(O)cccc4F)c(F)cc23)C(C)C1 | KRAS-mutant PDC tumor spheroid with HUVEC/MSC, viability | IC50 | < 3.16 nM |

// next item, IC50 requested
Input CC(C)NCC(C(=O)N1CCN(c2ncnc3c2C(C)CC3O)CC1)c1ccc(Cl)cc1 (stereo not drawn) + C=CC(=O)N1CCN(c2nc(=O)n(-c3c(C)ccnc3C(C)C)c3nc(-c4c(O)cccc4F)c(F)cc23)C(C)C1 . Output IC50: < 31.6 nM
